Tested on: ST8814
Assay: drug sensitivity score (DSS, CellTiter-Glo viability, 72 h) (DSS (dimensionless)); higher = more sensitive; extreme values may be limits of the assay
Measured drug sensitivity score by item
RECORDED ENDPOINT: drug sensitivity score

                                   molecule  target_under_test  value_measured
0  O=C(Cc1ccc(-c2ccc(OCCN3CCOCC3)cc2)cn1)NCc1ccccc1 [KX2-391] (max concentration tested 10000 nM)             ST8814            25.2
1  O=[N+]([O-])c1ccc2c(c1)S(=O)(=O)C=C2 [Stattic] (max concentration tested 50000 nM)             ST8814            14.9
2  c1ccc2c(CCNc3ccc(Nc4ccncc4)cc3)c[nH]c2c1 [Serdemetan] (max concentration tested 10000 nM)             ST8814            12.2
3  CCCCCOC(=O)Nc1nc(=O)n([C@@H]2O[C@H](C)[C@@H](O)[C@H]2O)cc1F [Capecitabine] (max concentration tested 10000 nM)             ST8814               0

* * *

System: STS26T
Assay: drug sensitivity score (DSS, CellTiter-Glo viability, 72 h) (DSS (dimensionless)); higher = more sensitive; extreme values may be limits of the assay
Threshold check on drug sensitivity score: at or above 3 gives Y, strictly below gives N.

COMPOUND	TARGET UNDER TEST	LABEL VALUE
Cc1sc2c(c1C)C(c1ccc(Cl)cc1)=N[C@H](CC(=O)OC(C)(C)C)c1nnc(C)n1-2 [(-)JQ1] (max concentration tested 10000 nM)	STS26T	N
O=C(CCCCCCC(=O)Nc1ccccc1)NO [Vorinostat] (max concentration tested 10000 nM)	STS26T	Y
O=S(=O)(c1cccc2cnccc12)N1CCCNCC1 [Fasudil] (max concentration tested 50000 nM)	STS26T	N
CC1(C)CCC(c2ccc(Cl)cc2)=C(CN2CCN(c3ccc(C(=O)NS(=O)(=O)c4ccc(N[C@H](CCN5CCOCC5)CSc5ccccc5)c(S(=O)(=O)C(F)(F)F)c4)cc3)CC2)C1 [Navitoclax] (max concentration tested 10000 nM)	STS26T	N
Cc1cc(Nc2cc(CN3CCOCC3)c3nc(C)c(Cc4ccc(Cl)cc4F)n3n2)n[nH]1 [Gandotinib] (max concentration tested 10000 nM)	STS26T	Y
COc1cc(O)c2c(c1)/C=C/C[C@H](O)[C@H](O)C(=O)/C=C\C[C@H](C)OC2=O [(5Z)-7-Oxozeaenol] (max concentration tested 10000 nM)	STS26T	Y
CO[C@H]1C[C@@H]2CC[C@@H](C)[C@@](O)(O2)C(=O)C(=O)N2CCCC[C@H]2C(=O)O[C@H]([C@H](C)C[C@@H]2CC[C@@H](OP(C)(C)=O)[C@H](OC)C2)CC(=O)[C@H](C)/C=C(\C)[C@@H](O)[C@@H](OC)C(=O)[C@H](C)C[C@H](C)/C=C/C=C/C=C/1C [Ridaforolimus] (max concentration tested 100 nM)	STS26T	Y
CNC(=O)c1cc(Oc2ccc(NC(=O)Nc3ccc(Cl)c(C(F)(F)F)c3)c(F)c2)ccn1 [Regorafenib] (max concentration tested 10000 nM)	STS26T	Y
COC1=C2C[C@@H](C)C[C@H](OC)[C@H](O)[C@@H](C)/C=C(\C)[C@H](OC(N)=O)[C@@H](OC)/C=C\C=C(/C)C(=O)NC(=CC1=O)C2=O [Geldanamycin] (max concentration tested 10000 nM)	STS26T	Y
CC1(C)NC(=O)N(c2ccc([N+](=O)[O-])c(C(F)(F)F)c2)C1=O [Nilutamide] (max concentration tested 10000 nM)	STS26T	N
Oc1ncc(N(CCCl)CCCl)c(O)n1 [Uracil mustard] (max concentration tested 10000 nM)	STS26T	N
COc1cc2nccc(Oc3ccc(NC(=O)C4(C(=O)Nc5ccc(F)cc5)CC4)cc3)c2cc1OC [Cabozantinib] (max concentration tested 1000 nM)	STS26T	N
CS(=O)(=O)N1CCN(Cc2cc3nc(-c4cccc5[nH]ncc45)nc(N4CCOCC4)c3s2)CC1 [Pictilisib] (max concentration tested 10000 nM)	STS26T	Y
N[C@@H](Cc1ccc(N(CCCl)CCCl)cc1)C(=O)O [Melphalan aq] (max concentration tested 12500 nM)	STS26T	N
Cc1ccc(C(=O)Nc2ccc(CN3CCN(C)CC3)c(C(F)(F)F)c2)cc1C#Cc1cnc2cccnn12 [Ponatinib] (max concentration tested 1000 nM)	STS26T	Y
